# Test Target: glucocorticoid receptor (GR) (Homo sapiens)
# Sequence (P04150 whole entry, species assumed): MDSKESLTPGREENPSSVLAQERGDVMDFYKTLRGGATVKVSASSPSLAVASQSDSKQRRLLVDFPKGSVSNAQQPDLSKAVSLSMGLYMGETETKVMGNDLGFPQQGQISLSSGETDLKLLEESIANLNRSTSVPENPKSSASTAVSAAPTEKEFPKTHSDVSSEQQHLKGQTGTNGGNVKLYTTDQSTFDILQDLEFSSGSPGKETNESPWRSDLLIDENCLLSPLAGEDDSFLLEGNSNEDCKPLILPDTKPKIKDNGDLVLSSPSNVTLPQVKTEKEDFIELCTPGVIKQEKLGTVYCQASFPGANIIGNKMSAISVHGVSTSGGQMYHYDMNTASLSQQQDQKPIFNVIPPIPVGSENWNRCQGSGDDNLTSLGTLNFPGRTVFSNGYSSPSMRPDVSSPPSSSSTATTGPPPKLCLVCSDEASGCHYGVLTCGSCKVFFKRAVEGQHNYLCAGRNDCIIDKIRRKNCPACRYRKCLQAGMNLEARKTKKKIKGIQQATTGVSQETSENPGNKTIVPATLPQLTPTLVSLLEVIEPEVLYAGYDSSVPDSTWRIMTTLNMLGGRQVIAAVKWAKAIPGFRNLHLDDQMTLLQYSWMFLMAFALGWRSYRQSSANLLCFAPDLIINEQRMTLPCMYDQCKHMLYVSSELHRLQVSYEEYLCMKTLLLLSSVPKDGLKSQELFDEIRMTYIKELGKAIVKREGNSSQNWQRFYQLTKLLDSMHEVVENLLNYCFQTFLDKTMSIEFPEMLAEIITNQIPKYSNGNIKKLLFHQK
# Run Description: GR-EFC nuclear translocation assay
# Format: cell-based
# Condition: read-out: qEC50
pEC50: −log10 of the molar value.
Property Label: pEC50

Worked examples, 2 compounds total:
Compound: C[C@]12Cc3cn4c(nc3C=C1CC[C@H]1[C@@H]2CC[C@@]2(C)[C@H]1CC[C@@]2(O)C#N)nc1ccccc14 [NCGC00016090-01]
pEC50: < 5.05

Compound: C=C(C)[C@H]1CC[C@]2(CO)CC[C@]3(C)[C@@H](CC[C@H]4[C@@]5(C)CC[C@@H](O)C(C)(C)[C@@H]5CC[C@@]43C)[C@H]12 [NCGC00016450-01]
pEC50: < 5.05

The record that follows has no pEC50 shown yet.
So what's the measured pEC50 for this one? CC(=O)[C@H]1CC[C@H]2[C@@H]3C=CC4=CC(=O)CC[C@@]4(C)[C@@H]3CC[C@]12C [NCGC00016413-01]
< 5.05
